Could you please report measured growth for the items listed next?
Tested on: SK-MEL-28 melanoma
methodNotes: NCI-60 one-dose screen, 48 h (100 = growth as untreated, 0 = no growth, -100 = all killed)
conditionDetails: 10 µM
Compounds without any hit were thinned out: in the full panel of roughly 83,000, 20% have a hit.
I only need the number, in %, no unit after it.

Challenge: Enter reported growth observed with SK-MEL-28 melanoma for CN1C(=O)CN2CCc3ccccc3C2c2cc(Cl)ccc21 (configuration not stated)
Response given: -89.5

Challenge: Enter reported growth observed with SK-MEL-28 melanoma for `CN(C)CCN(C)CC(C)(C)C(=O)/C=C/c1ccc(Cl)cc1`
Response given: -11.2

Challenge: Enter reported growth observed with SK-MEL-28 melanoma for `O=C(CN1CCNCC1)N1CCOCC1`
Response given: 115

Challenge: Enter reported growth observed with SK-MEL-28 melanoma for `C=CCc1cc(C(C)=O)cc(OC)c1O`
Response given: 110

Challenge: Enter reported growth observed with SK-MEL-28 melanoma for CCC(C)(O)c1ccc(C)cc1 (configuration not stated)
Response given: 104

Challenge: Enter reported growth observed with SK-MEL-28 melanoma for `COc1ccc(OC)c(/C=C2\CCc3ccccc3C2=O)c1`
Response given: 64.9

Challenge: Enter reported growth observed with SK-MEL-28 melanoma for `O=C(c1ccc(Cl)cc1)c1ccccc1Cl`
Response given: 129

Challenge: Enter reported growth observed with SK-MEL-28 melanoma for `COc1ccccc1NC(=O)C1=C(C)NC(C)=C(C(=O)Nc2ccccc2OC)C1c1cccc([N+](=O)[O-])c1`
Response given: 82.2

Challenge: Enter reported growth observed with SK-MEL-28 melanoma for `COC(=O)/C=C\C(=O)OC`
Response given: 112

Challenge: Enter reported growth observed with SK-MEL-28 melanoma for O=S(=O)(O)CC(O)CN1CCN(CCO)CC1 (configuration not stated)
Response given: 117

Challenge: Enter reported growth observed with SK-MEL-28 melanoma for O=C(OCC(O)C1OC(c2ccccc2)OC(COC(=O)c2ccccc2)C1O)c1ccccc1 (configuration not stated)
Response given: 104

Challenge: Enter reported growth observed with SK-MEL-28 melanoma for `CCCCC/C=N/Nc1nc(C)cc(=O)[nH]1`
Response given: 102

Challenge: Enter reported growth observed with SK-MEL-28 melanoma for O=C1C=CC2=C3c4cc(O)c(O)cc4CC3(O)COC2=C1O (configuration not stated)
Response given: 119

Challenge: Enter reported growth observed with SK-MEL-28 melanoma for `CCN(CC)c1ccc2nc3ccc(=[N+](CC)CC)cc-3oc2c1`
Response given: 2.45

Challenge: Enter reported growth observed with SK-MEL-28 melanoma for `CCC(C#N)(CC)c1ccccc1`
Response given: 108

Challenge: Enter reported growth observed with SK-MEL-28 melanoma for `NC(=O)N/N=C\c1ccco1`
Response given: 116

Challenge: Enter reported growth observed with SK-MEL-28 melanoma for `CN(c1ccccc1)c1ncnc2c1ncn2C`
Response given: 112

Challenge: Enter reported growth observed with SK-MEL-28 melanoma for `C[N+](C)=c1ccc2nc3c(cc(Nc4ccccc4)c4ccccc43)oc-2c1`
Response given: 23.5

Challenge: Enter reported growth observed with SK-MEL-28 melanoma for `CN(C)/N=C/c1ccccc1O`
Response given: 111

Challenge: Enter reported growth observed with SK-MEL-28 melanoma for `Cc1cc(C)c(N)c(S(=O)(=O)O)c1`
Response given: 132

Challenge: Enter reported growth observed with SK-MEL-28 melanoma for `N#CCCN(CCCN1CCOCC1)CN1C(=O)c2ccccc2C1=O`
Response given: 101

Challenge: Enter reported growth observed with SK-MEL-28 melanoma for `CCC/C=C(/C(C)=O)C(=O)OCC`
Response given: 122

Challenge: Enter reported growth observed with SK-MEL-28 melanoma for `CCCCN(CCCC)CCCO`
Response given: 110

Challenge: Enter reported growth observed with SK-MEL-28 melanoma for `Cc1cc(C)c(CC(=O)O)c(C)c1`
Response given: 124

Challenge: Enter reported growth observed with SK-MEL-28 melanoma for `S=C1CCCCCN1`
Response given: 105

Challenge: Enter reported growth observed with SK-MEL-28 melanoma for `CCCCNC1(C#N)CCN(Cc2ccccc2)CC1`
Response given: 102

Challenge: Enter reported growth observed with SK-MEL-28 melanoma for `Cc1cc(Cc2cc(C)c(N)cc2N)c(N)cc1N`
Response given: 112

Challenge: Enter reported growth observed with SK-MEL-28 melanoma for O=C1OC(c2ccc(F)cc2)CC1CN1CCOCC1 (configuration not stated)
Response given: 109

Challenge: Enter reported growth observed with SK-MEL-28 melanoma for CC1CC(O)C2C3(C)CCCC2(COC3=O)C12CCC1(CCOC1=O)O2 (configuration not stated)
Response given: 111

Challenge: Enter reported growth observed with SK-MEL-28 melanoma for CC(C)C1CCCCC1O (configuration not stated)
Response given: 116

Challenge: Enter reported growth observed with SK-MEL-28 melanoma for CC1CCCCN1C(=S)Nc1ccc(S(=O)(=O)N2CCCCC2)cc1 (configuration not stated)
Response given: 98.6

Challenge: Enter reported growth observed with SK-MEL-28 melanoma for `O=C(NN=C1CCCCC1)C(=O)NN=C1CCCCC1`
Response given: 100

Challenge: Enter reported growth observed with SK-MEL-28 melanoma for `CC(C)COC(=O)COC(=O)OCCOCCOC(=O)OCC(=O)OCC(C)C`
Response given: 107

Challenge: Enter reported growth observed with SK-MEL-28 melanoma for `Cc1ccc(/C=C2\SC(=S)N(c3ccc(F)cc3)C2=O)o1`
Response given: 100

Challenge: Enter reported growth observed with SK-MEL-28 melanoma for `S=c1[nH]ccn1-c1ccccc1Cl`
Response given: 101

Challenge: Enter reported growth observed with SK-MEL-28 melanoma for `O=c1[nH]nc(SC2CCCCC2)c(=O)[nH]1`
Response given: 94.8

Challenge: Enter reported growth observed with SK-MEL-28 melanoma for `C#Cc1cccc(NC(=O)c2ccc(Cl)cc2Cl)c1`
Response given: 102

Challenge: Enter reported growth observed with SK-MEL-28 melanoma for `Nc1ccccc1C(=O)Nc1ccc(Cl)cc1Cl`
Response given: 100

Challenge: Enter reported growth observed with SK-MEL-28 melanoma for `COc1cc2cc(OC(C)=O)c3cc4c(cc3c2c(OC)c1OC)OCO4`
Response given: 105

Challenge: Enter reported growth observed with SK-MEL-28 melanoma for `O=C(Nc1cccc(NC(=O)Nc2cc(C(F)(F)F)ccc2Cl)c1)Nc1cc(C(F)(F)F)ccc1Cl`
Response given: 34.4

Challenge: Enter reported growth observed with SK-MEL-28 melanoma for `CC(C)NC(=O)OCc1c(COC(=O)NC(C)C)c(-c2ccc(Cl)c(Cl)c2)n2c1SCC2`
Response given: 92.8

Challenge: Enter reported growth observed with SK-MEL-28 melanoma for `CCn1c(=O)n(C)c2c(=O)n(C)c(=O)n(C)c21`
Response given: 118

Challenge: Enter reported growth observed with SK-MEL-28 melanoma for O=C(O)C(O)c1ccccc1 (configuration not stated)
Response given: 107

Challenge: Enter reported growth observed with SK-MEL-28 melanoma for `COC(=O)c1[nH]c(=O)c(C#N)c(C(=O)OC)c1C(=O)c1ccccc1`
Response given: 101

Challenge: Enter reported growth observed with SK-MEL-28 melanoma for `C/C(=N/NC(N)=O)c1ccco1`
Response given: 117

Challenge: Enter reported growth observed with SK-MEL-28 melanoma for `COC(=O)Nc1cccc(Cl)c1OC`
Response given: 114

Challenge: Enter reported growth observed with SK-MEL-28 melanoma for `O=C1c2ccccc2C(=O)N1OCc1ccccc1`
Response given: 113

Challenge: Enter reported growth observed with SK-MEL-28 melanoma for `CN(C)CCC(=O)c1ccc(O)cc1`
Response given: 110

Challenge: Enter reported growth observed with SK-MEL-28 melanoma for `O=[N+]([O-])c1ccc(N=Nc2ccccc2)cc1`
Response given: 99.3

Challenge: Enter reported growth observed with SK-MEL-28 melanoma for `COc1ccc2c(NCCCCCCCCNc3c4ccccc4nc4cc(OC)ccc34)c3ccccc3nc2c1`
Response given: -100

Challenge: Enter reported growth observed with SK-MEL-28 melanoma for `C/C(=N\O)C1(O)CCCCC1`
Response given: 114

Challenge: Enter reported growth observed with SK-MEL-28 melanoma for CC(=Nc1ccccc1)C1=C(O)C(Cc2cccc(F)c2)NC1=O (configuration not stated)
Response given: 63.5
